# assay.procedure: Bidirectional transport of SKE and RAI in Caco-2 cell monolayer model
# Type: in vitro ADME, human
# condition.details: human, Caco-2, ER, in SKE, 0.1 mg/mL; ER=Papp(B-A)/Papp(A-B)
Listed compounds paired with reported efflux ratio at 0.1 mg/mL
Please give only the number in your answer, with no unit.

Would you please look over these solved cases?
INSERT INTO results (compound, measured) VALUES
  ('Cc1cc(O)c2c(c1)C(=O)c1cc(O)cc(O)c1C2=O [Emodin, emodin]', 1.46),
  ('Cc1cc(O)c2c(c1)C(=O)c1cccc(O)c1C2=O [Chrysophanol, chrysophanol]', 1.61);

Proceed to the following item.
Param item = O=C(O)c1cc(O)c2c(c1)C(=O)c1cccc(O)c1C2=O [Rhein, rhein] ; retrieve measured efflux ratio at 0.1 mg/mL. 0.64

---

# assay.procedure: Bidirectional transport of SKE and RAI in Caco-2 cell monolayer model
# Format: in vitro ADME, human
# condition.details: human, Caco-2, Papp(A-B), in RAI, contents as in 0.1 mg/mL SKE; Caco-2, AP-BL; mean ± SD, n = 3
Recorded Papp A→B at 0.1 mg/mL for the following compounds
Expressed in ×10⁻⁶ cm/s, but write only the number.

INSERT INTO results (substance_smiles, reading_unit, measured) VALUES
  ('Cc1cc(O)c2c(c1)C(=O)c1cc(O)cc(O)c1C2=O', '×10⁻⁶ cm/s', 7.31);

Reported Papp A→B at 0.1 mg/mL, compound `Cc1cc(O)c2c(c1)C(=O)c1cccc(O)c1C2=O` : ____ 7.97

Endpoint output: Papp A→B at 0.1 mg/mL of `O=C1c2cccc(O)c2C(=O)c2c(O)cc(CO)cc21` . Value? 14.3

Which Papp A→B at 0.1 mg/mL value is on record for `O=C(O)c1cc(O)c2c(c1)C(=O)c1cccc(O)c1C2=O` ? 34.2

---

# System: rat different intestinal segments
# assay.procedure: In situ single-pass intestinal perfusion in rats
# Type: in vivo, Sprague-Dawley rats
# condition.details: same tested intestinal segment
property.measured: Peff in RAI compared with SKE

INSERT INTO results (substance_smiles, system_under_test, measured) VALUES
  ('Cc1cc(O)c2c(c1)C(=O)c1cccc(O)c1C2=O', 'rat different intestinal segments', 'higher than those in SKE'),
  ('Cc1cc(O)c2c(c1)C(=O)c1cc(O)cc(O)c1C2=O', 'rat different intestinal segments', 'higher than those in SKE'),
  ('O=C1c2cccc(O)c2C(=O)c2c(O)cc(CO)cc21', 'rat different intestinal segments', 'higher than those in SKE');

---

# assay.procedure: Bidirectional transport of SKE and RAI in Caco-2 cell monolayer model
# Type: in vitro ADME, human
# condition.details: human, Caco-2, Papp(B-A), in RAI, contents as in 0.05 mg/mL SKE; Caco-2, BL-AP; mean ± SD, n = 3
property.measured: Papp B→A at 0.05 mg/mL (×10⁻⁶ cm/s)
// note: answer is a bare numeric in ×10⁻⁶ cm/s

Known results for compounds:
INSERT INTO assay_data (substance_smiles, measured) VALUES
  ('O=C(O)c1cc(O)c2c(c1)C(=O)c1cccc(O)c1C2=O', 26.6),
  ('Cc1cc(O)c2c(c1)C(=O)c1cccc(O)c1C2=O', 15.7),
  ('Cc1cc(O)c2c(c1)C(=O)c1cc(O)cc(O)c1C2=O', 11.5);

Attention now shifts to the item below.
GET /values?readout=Papp B→A at 0.05 mg/mL&item= `O=C1c2cccc(O)c2C(=O)c2c(O)cc(CO)cc21` 16.1

---

Entries annotated with measured Papp A→B at 0.025 mg/mL
# assay.procedure: Bidirectional transport of SKE and RAI in Caco-2 cell monolayer model
# Type: in vitro ADME, human
# condition.details: human, Caco-2, Papp(A-B), in SKE, 0.025 mg/mL; Caco-2, AP-BL; mean ± SD, n = 3
# number only, unit ×10⁻⁶ cm/s dropped from output

Consider the reported Papp A→B at 0.025 mg/mL for these compounds:
INSERT INTO assay_data (compound, measured) VALUES
  ('Cc1cc(O)c2c(c1)C(=O)c1cccc(O)c1C2=O [Chrysophanol, chrysophanol]', 6.23),
  ('O=C(O)c1cc(O)c2c(c1)C(=O)c1cccc(O)c1C2=O [Rhein, rhein]', 27.4),
  ('O=C1c2cccc(O)c2C(=O)c2c(O)cc(CO)cc21 [Aloe-emodin, aloe-emodin]', 19.6);

Consider the compound Cc1cc(O)c2c(c1)C(=O)c1cc(O)cc(O)c1C2=O [Emodin, emodin] and give its measured Papp A→B at 0.025 mg/mL. 7.4

---

# assay.procedure: Bidirectional transport of SKE and RAI in Caco-2 cell monolayer model
# Type: in vitro ADME, human
# condition.details: human, Caco-2, Papp(B-A), in SKE, 0.05 mg/mL; Caco-2, BL-AP; mean ± SD, n = 3
Papp B→A at 0.05 mg/mL reference
Just the number please, in ×10⁻⁶ cm/s, no unit attached.

As a guide, the following entries are already answered.
INSERT INTO assay_data (compound, property_measured, measured) VALUES
  ('O=C(O)c1cc(O)c2c(c1)C(=O)c1cccc(O)c1C2=O [Rhein, rhein]', 'Papp B→A at 0.05 mg/mL', 20.5),
  ('O=C1c2cccc(O)c2C(=O)c2c(O)cc(CO)cc21 [Aloe-emodin, aloe-emodin]', 'Papp B→A at 0.05 mg/mL', 23.4),
  ('Cc1cc(O)c2c(c1)C(=O)c1cc(O)cc(O)c1C2=O [Emodin, emodin]', 'Papp B→A at 0.05 mg/mL', 10.6);

For the next question, use this compound.
Returns the measured Papp B→A at 0.05 mg/mL for the input compound. Input: Cc1cc(O)c2c(c1)C(=O)c1cccc(O)c1C2=O [Chrysophanol, chrysophanol] 13.9

The measurements presented in this section are drawn from paper PMC9975633.
